src = patent US20210388087A1

- assay-target: T1, human CD137-Fc (human, biotin-labeled)
- T1 construct: if 90 already holds the Fc, drop the second piece; also called biotin-labeled human CD137 fused to human IgG1 Fc fragment; biotin-human CD137-Fc; not shown: human IgG1 Fc fragment
- T1 sequence (chain, as listed by the source): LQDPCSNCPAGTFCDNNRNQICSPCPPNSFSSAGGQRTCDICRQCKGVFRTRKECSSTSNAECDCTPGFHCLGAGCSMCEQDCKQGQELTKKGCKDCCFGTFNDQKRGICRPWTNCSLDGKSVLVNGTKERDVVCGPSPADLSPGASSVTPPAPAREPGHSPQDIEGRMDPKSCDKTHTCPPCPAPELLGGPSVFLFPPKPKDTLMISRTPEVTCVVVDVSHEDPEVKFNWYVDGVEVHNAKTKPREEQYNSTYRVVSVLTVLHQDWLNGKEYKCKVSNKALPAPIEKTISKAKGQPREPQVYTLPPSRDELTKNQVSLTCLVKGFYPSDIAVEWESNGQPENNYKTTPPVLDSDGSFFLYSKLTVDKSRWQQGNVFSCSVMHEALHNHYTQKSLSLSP
- assay-info: bead ELISA on biotin-human CD137-Fc, 125 vs 0 pmol free CD3e peptide;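 further: target captured on streptavidin-coated magnetic beads, signal read as fluorescence 2 min after adding APS-5 substrate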

- binder: "dBBDu202 (antibody, V domains shown, Human IgG1; light chain GLS3000 (kappa)) VH: QVQLVESGGGLVQPGRSLRLSCAASGFTFSNAWMHWVRQAPGKGLEWVAQIKDKGNAYAAYYAPSVKGRFTISRDDSKNSIYLQMNSLKTEDTAVYYCHYVHYSAASTVLPAFGVDAWGQGTTVTVSS VL: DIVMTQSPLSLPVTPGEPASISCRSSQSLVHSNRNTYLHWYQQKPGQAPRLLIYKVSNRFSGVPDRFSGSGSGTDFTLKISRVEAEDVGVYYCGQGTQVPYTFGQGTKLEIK"
  Signal decrease [%]: 84
- binder: "dBBDu193 (antibody, V domains shown, Human IgG1; light chain GLS3000 (kappa)) VH: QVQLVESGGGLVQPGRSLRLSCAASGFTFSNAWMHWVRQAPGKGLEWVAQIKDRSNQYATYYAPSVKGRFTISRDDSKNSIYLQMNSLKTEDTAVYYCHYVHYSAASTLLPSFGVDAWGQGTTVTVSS VL: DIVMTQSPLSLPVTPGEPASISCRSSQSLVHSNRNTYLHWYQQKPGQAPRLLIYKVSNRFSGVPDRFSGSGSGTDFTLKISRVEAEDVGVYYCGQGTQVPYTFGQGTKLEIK"
  Signal decrease [%]: 87.5
- binder: "anti-human CD137 antibody described in WO2005/035584A1 (abbreviated as B) (antibody, V domains shown, Control antibody; also called control anti-CD137 antibody) VH: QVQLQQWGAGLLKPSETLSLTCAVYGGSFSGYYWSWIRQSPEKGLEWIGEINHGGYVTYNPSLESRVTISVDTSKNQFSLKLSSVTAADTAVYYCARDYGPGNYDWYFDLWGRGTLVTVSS VL: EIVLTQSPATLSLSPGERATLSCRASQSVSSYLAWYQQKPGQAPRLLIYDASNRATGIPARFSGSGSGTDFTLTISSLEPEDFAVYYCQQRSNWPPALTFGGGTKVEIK"
  Signal decrease [%]: 1.26
